Recorded measurements of functional reporter gene assay (% inhibition), 5 µg/mL mAb, one per entry
- Assayed system: T1, human IL-1RAcP on 293T/17-FR cells (human, UniProt Q9NPH3 21-570)
- T1 sequence (looked up): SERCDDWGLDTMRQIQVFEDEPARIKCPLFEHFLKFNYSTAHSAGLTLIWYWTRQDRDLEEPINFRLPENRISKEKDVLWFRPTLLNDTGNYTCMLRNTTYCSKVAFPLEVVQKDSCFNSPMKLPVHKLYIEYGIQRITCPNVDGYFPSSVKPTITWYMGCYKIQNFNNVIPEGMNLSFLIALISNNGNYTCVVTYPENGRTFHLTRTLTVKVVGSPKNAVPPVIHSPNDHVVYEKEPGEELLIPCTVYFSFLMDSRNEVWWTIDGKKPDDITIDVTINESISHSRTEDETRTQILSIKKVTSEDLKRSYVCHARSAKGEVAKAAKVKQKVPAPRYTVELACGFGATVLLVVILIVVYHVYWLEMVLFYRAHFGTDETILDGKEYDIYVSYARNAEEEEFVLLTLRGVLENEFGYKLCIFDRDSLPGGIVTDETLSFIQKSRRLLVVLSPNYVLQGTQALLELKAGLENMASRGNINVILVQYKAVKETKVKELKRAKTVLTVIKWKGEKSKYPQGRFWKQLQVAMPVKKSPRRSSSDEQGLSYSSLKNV
- Method notes: cell-based or functional assay
Parameter measured: functional reporter gene assay (% inhibition), 5 µg/mL mAb

{"Binder": "P013.S.02.B.B02 (antibody, V domains shown, rabbit monoclonal antibody; also called P013.A.00045.H10) VH: LAQSGGGAEGGLVKPGGSLELCCEASGFSLSSSYWICWVRQAPGKGLEWIGCIYTGSSGNTYYASWVNGRFTLSRDIDRSTGCLQLNSLTAADTAMYYCARDANSHYMMNLWGQGTLVTVSS VL: ALVMTQTPSPVSAAVGGTVTINCQASEDIYSNLAWFQQKPGQPPKLLIYDASTLASGVPSRFSGSGSGTEFTLTISGLQSDDAATYYCLGVYTYISADGTLVYNAFGGGTEVVVR", "Result": "87%"}
{"Binder": "P013.S.01.B.C06 (antibody, V domains shown, rabbit monoclonal antibody; also called P013.A.00014.D06) VH: QSVEESGGRLVTPGGSLTLTCTVSGFSLSIYAMGWFRQAPGKGLEWIGDIYAGSGSTWYASWAKGRFTISKTSTTVDLKITSPTTEDTATYFCAREIDAGYVGYGFNLWGQGTLVTVSS VL: AQALTQTPSSVSAAVGGTVTINCQSSQSVYSDYLAWYQQKPGQPPKLLIYQASKLATGVPSRFKGSGSGTQFTLTISGVQSDDAATYYCQATYYGSGWYRAFGGGTELVVK", "Result": "93%"}
{"Binder": "P013.S.01.B.E04 (antibody, V domains shown, rabbit monoclonal antibody; also called P013.A.00109.D07) VH: QSVEESGGRLVTPGTPLTLTCTVSGIDLNSNGINWVRQAPGKGLEWIGYIGAGDITYCASWAKGRFTISKTSSTTVDLKITSLTTEDTATYFCARWGPGALDLWGQGTLVTVSS VL: AQVLTQTASSVSATVGGTVTISCQSSQSVYNNNYLSWYQQKPGQPPKLLIYKASTLASGVPLRFSGSGSGTQFTLTISGVQSDDAATYYCAGFYETTDVGFGGGTEVVVK", "Result": "98%"}
{"Binder": "P013.S.02.B.F04 (antibody, V domains shown, rabbit monoclonal antibody; also called P013.A.00109.B02) VH: QEQLVESGGDLVKPEGSLTLTCTASGFSFSSNYWICWVRQAPGKGLEWIACIYTSTDTTYYPNWAKGRFTISKTSSTTVTLQMTSLTAADTATYFCARDLLVVTSFNLWGQGTLVTVSS VL: ALVMTQTPSPVSAAVGGTVTINCQASEDIYSNLAWFQQKPGQPPKLLIYGASTLASGVPSRFSGSGSGTEFTLTISGVQSDDAATYYCLGVCTDISADDLYNTFGGGTEVVVK", "Result": "96%"}
{"Binder": "P013.S.01.B.C02 (antibody, V domains shown, rabbit monoclonal antibody; also called P013.A.00014.C10) VH: QSLEESGGDLVKPGASLTLTCTASGFSFSSSHYMCWVRQAPGKGLEWIACIYAGSSGNTYYANWAKGRFTISKTSSTTVTLQMTSLTAADTATYFCARVDASSSGSWDLWGPGTLVTVSS VL: AIEMTQTPFSVSAAVGGTVTINCQASESIYSNLAWYQQILGQPPKLLIYAASLLASGVPSRFKGSGSGTEYTLTISGVQSADAATYYCQSASYSTGPDWTFGGGTEVVVE", "Result": "98%"}

Where do these numbers come from? They come from patent US20190106487A1.
